Hey, just so you know, these numbers are from ChEMBL document CHEMBL4041467.

# System: Staphylococcus aureus
# Assay Protocol: Antibacterial activity against inducibly macrolide/lincosamide/streptogramin B-resistant Staphylococcus aureus by agar microdilution method
# Type: functional
Quantity Kind: MIC (µg/mL)
Give your result in µg/mL as a bare value.

Fill in: MIC of C=CCO[C@]1(C)C[C@@H](C)NC(=O)[C@H](C)[C@@H](O)[C@](C)(O)[C@@H](CC)OC(=O)[C@H](C)[C@@H](OC(=O)CCN2CCN(c3cc4c(cc3F)c(=O)c(C(=O)O)cn4C3CC3)CC2)[C@H](C)[C@H]1O[C@@H]1O[C@H](C)C[C@H](N(C)C)[C@H]1O is ___
1

Consider next the compound C=CCO[C@]1(C)C[C@@H](C)NC(=O)[C@H](C)[C@@H](O)[C@](C)(O)[C@@H](CC)OC(=O)[C@H](C)[C@@H](OC(=O)CCNC(C)C(=O)Nc2cnc3ccccc3c2)[C@H](C)[C@H]1O[C@@H]1O[C@H](C)C[C@H](N(C)C)[C@H]1O (some centres undefined) in the same way.
1

Consider next the compound C=CCO[C@]1(C)C[C@@H](C)NC(=O)[C@H](C)[C@@H](O)[C@](C)(O)[C@@H](CC)OC(=O)[C@H](C)[C@@H](OC(=O)CCNC(C)C(=O)Nc2ccc([N+](=O)[O-])cc2)[C@H](C)[C@H]1O[C@@H]1O[C@H](C)C[C@H](N(C)C)[C@H]1O (some centres undefined) in the same way.
1
